- Test system: SK-MEL-28
- METHOD: NCI tumour cell line growth inhibition, 48 h
Calls of active or inactive are those of the source. Cut-off read from the data, not from the text of the source: active = GI50 up to about 1.1 µM and inactive = higher.
ASSAY READOUT: GI50

Exam item: Identify the measured GI50 of `O=C(Nc1ccc(Cl)cc1Cl)/C(Cl)=C1/Sc2ccccc2NC1=O` for SK-MEL-28.
Marked response: 23.6 µM (inactive)

Exam item: Entry to check: CC1(C)OC2OC(COC(=O)C=[N+]=[N-])C3OC(C)(C)OC3C2O1 (configuration not stated)
Marked response: > 100 µM (inactive)

Exam item: Entry to check: `CCOC(=O)/C(O)=C(/c1n[nH]c(=O)c2ccccc12)[N+](=O)[O-]`
Marked response: > 100 µM (inactive)

Exam item: Entry to check: `O=C1NC(=O)/C(=C\c2ccncc2)N1`
Marked response: > 100 µM (inactive)

Exam item: Entry to check: `CCO/C=C1\N=C(c2ccc(Cl)c(Cl)c2)OC1=O`
Marked response: > 100 µM (inactive)

Exam item: Entry to check: `COc1cc(-c2oc3c(OC)c(O)c(OC)c(O)c3c(=O)c2OC)cc(O)c1OC`
Marked response: 47.5 µM (inactive)

Exam item: Entry to check: Cc1nn(C(=O)c2ccc(Cl)cc2)c2c1C(c1ccc([N+](=O)[O-])cc1)SC(=N)N2 (configuration not stated)
Marked response: > 10 µM (inactive)

Exam item: Entry to check: `Cc1n[nH]c(=O)n1-c1cccnc1`
Marked response: > 100 µM (inactive)

Exam item: Entry to check: `CN(C)C(=S)/N=c1\ss/c(=N\S(=O)(=O)c2ccccc2)n1N(C)C`
Marked response: > 100 µM (inactive)

Exam item: Entry to check: CCC1(OC(=O)CN2CCN(CCO)CC2)C(=O)OCc2c1cc1n(c2=O)Cc2cc3ccccc3nc2-1 (configuration not stated)
Marked response: 3.33 µM (inactive)

Exam item: Entry to check: `COc1cc(C(=O)Nc2cc(C(N)=O)cc(OC)c2OC)cc(NC(=O)/C=C/c2ccccc2)c1OC`
Marked response: > 100 µM (inactive)

Exam item: Entry to check: `COC(=O)C1=C(C(=O)OC)C2(c3ccccc3)OC1(c1ccccc1)c1cc3ccccc3cc12`
Marked response: 1.87 µM (inactive)

====

Give measured GI50 for each item. Keep answers brief.
- Test system: HOP-62
- METHOD: NCI tumour cell line growth inhibition, 48 h
Active and inactive are the calls of the source. Cut-off read from the data, not from the text of the source: active = GI50 up to about 1.1 µM and inactive = higher.

Exam item: Identify the measured GI50 of CCCOP1(=O)C=C(C)C(Cl)=C(C)C1 (stereo unspecified) for HOP-62.
Marked response: 42.4 µM (inactive)

Exam item: Entry to check: `N#Cc1c(-c2ccccc2)c(/C=N/c2ccc(F)cc2)c(=O)n2c1[nH]c1ccccc12`
Marked response: 2.95 µM (inactive)

Exam item: Entry to check: CCC(NC(C)c1ccccc1)C(O)c1ccc(OCc2ccccc2)c(OCc2ccccc2)c1 (stereo unspecified)
Marked response: 17.9 µM (inactive)

Exam item: Entry to check: `O=[N+]([O-])c1cc(Cl)c(Cl)cc1[N+](=O)[O-]`
Marked response: 2.74 µM (inactive)

Exam item: Entry to check: `COc1ccc(C(=O)C#Cc2cnc(OC)nc2OC)cc1`
Marked response: 17 µM (inactive)

Exam item: Entry to check: Cc1nn(C(=O)c2ccc(Cl)cc2)c2c1C(c1ccc([N+](=O)[O-])cc1)SC(=N)N2 (stereo unspecified)
Marked response: > 10 µM (inactive)

Exam item: Entry to check: `CC(=O)OCCN(C1=NCCN1)/[N+](C=c1ccc(=C=[N-])cc1)=C/c1ccc(C#N)cc1`
Marked response: > 100 µM (inactive)

Exam item: Entry to check: `CC(C)N(CCn1c2c3ccccc3ccc2c2oc(=O)c3ccccc3c21)C(C)C`
Marked response: > 23.1 µM (inactive)

Exam item: Entry to check: CC1(C)C2CCC(CN)(C2)C1N (stereo unspecified)
Marked response: > 100 µM (inactive)

Exam item: Entry to check: `O=C(/C=C/c1ccc2c(c1)OCO2)CC(=O)/C=C/c1ccc2c(c1)OCO2`
Marked response: > 100 µM (inactive)

Exam item: Entry to check: Cc1c2n(c(=O)[nH]c1=O)C1OC(CO)C(N=[N+]=[N-])C1O2 (stereo unspecified)
Marked response: > 100 µM (inactive)

Exam item: Entry to check: `CO/C(=N\N=C\c1cc(OC)ccc1OC)c1ccncc1`
Marked response: > 10 µM (inactive)

Exam item: Entry to check: CNc1ccc([S+]([O-])Nc2ccc(OC)cc2)cc1 (stereo unspecified)
Marked response: > 100 µM (inactive)

Exam item: Entry to check: O=P(OCc1ccccc1)(OCc1ccccc1)C(O)/C=C/c1ccccc1 (stereo unspecified)
Marked response: 21.8 µM (inactive)

Exam item: Entry to check: `c1ccc2c(c1)[nH]c1c[nH]c3c4cccnc4nc-3c12`
Marked response: 29.9 µM (inactive)

Exam item: Entry to check: `COc1ccc2c(c1)[n+]([O-])c(C#N)c(N1CCN(c3ccc([N+](=O)[O-])cc3)CC1)[n+]2[O-]`
Marked response: 4.24 µM (inactive)

Exam item: Entry to check: `CCN(CC)Cc1ccc(C(=S)Nc2ccc(Cl)cc2)s1`
Marked response: 16.3 µM (inactive)

Exam item: Entry to check: `CN1CCCCCC(=N\O)/C(=N/O)CCCCC1`
Marked response: > 100 µM (inactive)

Exam item: Entry to check: `COc1ccc2[nH]c3c(C)c4cnccc4c(C)c3c2c1`
Marked response: 1.43 µM (inactive)

Exam item: Entry to check: `O=C1C([P+](c2ccccc2)(c2ccccc2)c2ccccc2)=C([O-])C(=Cc2ccc(Cl)c(Cl)c2)C([O-])=C1[P+](c1ccccc1)(c1ccccc1)c1ccccc1`
Marked response: 3.54 µM (inactive)

Exam item: Entry to check: `O=C(O)[C@@H](NS(=O)(=O)c1ccc(F)cc1)c1ccccc1`
Marked response: > 100 µM (inactive)

====

- System: NCI-H522
- METHOD: NCI tumour cell line growth inhibition, 48 h
The source made the active and inactive calls. Cut-off read from the data, not from the text of the source: active = GI50 up to about 1.1 µM and inactive = higher.
Hi! Could you answer with just one of these? active, inactive

Exam item: Assay outcome for CCOC(=O)c1nc2c3c(ncn2n1)Oc1c(c(-c2ccccc2)nn1-c1ccccc1)C3c1ccc(Cl)cc1 (stereo not drawn) : what was it?
Marked response: inactive

Exam item: Entry to check: CC1(C(=O)O)CCCC1C(=O)O (stereo not drawn)
Marked response: inactive

Exam item: Entry to check: COc1cc2c(cc1O)C1C(O)C(O)C=C3CCN(C2)C31 (stereo not drawn)
Marked response: inactive

Exam item: Entry to check: `COC1=NCc2ccccc2-c2ccccc21`
Marked response: inactive

Exam item: Entry to check: `COc1cc(/N=C(\N)N=C(N)N)c2ncccc2c1`
Marked response: inactive

Exam item: Entry to check: `C[C@@H]1Nc2cc(NC(=O)OCCF)nc(N)c2N=C1c1ccccc1`
Marked response: active

Exam item: Entry to check: `Cc1cc(NS(=O)(=O)c2ccc(/N=[N+](\[O-])c3ccc(S(=O)(=O)Nc4cc(C)on4)cc3)cc2)no1`
Marked response: inactive

Exam item: Entry to check: `O=C(CCc1ccc(O)cc1)NCCc1cccc(OCc2ccccc2)c1`
Marked response: inactive

Exam item: Entry to check: C=Cc1ccccc1C1C(C(=O)OCC)=C(C)N=C2OC(C(=O)OC)C(=O)N21 (stereo not drawn)
Marked response: inactive

Exam item: Entry to check: `COc1ccc(/C=C/c2cc(OC)c(OCc3ccccc3)c(OC)c2)cc1`
Marked response: inactive

Exam item: Entry to check: `COC(=O)c1nn(C(=N)c2ccc(Cl)cc2)c2c1CCCCC2`
Marked response: inactive

Exam item: Entry to check: `Clc1ccc(/N=C2\c3ccccc3CN2c2ccc(Cl)cc2)cc1`
Marked response: inactive

Exam item: Entry to check: `Nc1nc(SCc2ccccc2Cl)c2[nH]cnc2n1`
Marked response: inactive

====

- Test system: MDA-N
- METHOD: NCI tumour cell line growth inhibition, 48 h
Calls of active or inactive are those of the source. No stated cut-off is given here; in the data, active = GI50 up to about 1.1 µM and inactive = higher.
Hi! Could you answer with just one of these? active, inactive

Exam item: Assay outcome for `Cc1ccc(-c2nc(N/N=C/C=C/c3ccccc3)c3ccccc3n2)cc1` : what was it?
Marked response: inactive

Exam item: Entry to check: CC(=O)NC1C(OCc2ccccc2)OC(CO)C(O)C1OC(C)C(=O)N[C@@H](C)C(=O)N[C@H](CCC(=O)NCCNCCNc1c2ccccc2nc2cccc([N+](=O)[O-])c12)C(N)=O (stereo not given in full)
Marked response: active

Exam item: Entry to check: C=C1C(O)C[C@H](OC(C)=O)[C@]2(C)C1C(OC(C)=O)[C@]1(C(C)(C)O)CC(O)C(C)=C1[C@@H](OC(=O)c1ccccc1)C2OC(C)=O (stereo not given in full)
Marked response: inactive

Exam item: Entry to check: `COC(=O)CSc1[nH]c2nc(C)nc(Nc3ccccc3)c2c1C#N`
Marked response: inactive

Exam item: Entry to check: `N#CC(C#N)=C1CCCCc2ccc([N+](=O)[O-])cc21`
Marked response: inactive

Exam item: Entry to check: O/N=C1/Nc2cc(Cl)ccc2C(=S)N2CSCC12 (stereo not given)
Marked response: inactive

Exam item: Entry to check: `COc1cc(/N=C(\N)N=C(N)N)c2ncccc2c1`
Marked response: inactive

Exam item: Entry to check: `O=c1c2cc([N+](=O)[O-])ccc2n2n1CCCCC2`
Marked response: inactive

Exam item: Entry to check: CN(C)CCCNc1ncnc2c1ncn2C1OC(CO)C(O)C1O (stereo not given)
Marked response: inactive

Exam item: Entry to check: `CC(C)=C[C@@H]1O[C@H](O)[C@@H]([C@H]2CC[C@@]3(C)[C@@H]4CC[C@H]5C(C)(C)C(=O)CC[C@@]56C[C@@]46CC[C@]23C)[C@@H]1O`
Marked response: inactive

Exam item: Entry to check: `Cc1ccccc1/N=N/c1ccc(N/N=C2/CCCNC2=O)c(C)c1`
Marked response: inactive

Exam item: Entry to check: `NC(=O)C1=NNc2ccccc2C(=O)N1c1ccccc1`
Marked response: inactive

Exam item: Entry to check: `COc1ccc(Nc2nc3c([nH]2)c(=O)n(C)c(=O)n3C)cc1`
Marked response: inactive

Exam item: Entry to check: CCOC(=O)CC1c2ccc(O)cc2OC(=O)C1c1ccc(N)cc1 (stereo not given)
Marked response: inactive

Exam item: Entry to check: `COc1cc2c(cc1C)NC(=O)/C2=C/c1c(Cl)[nH]c2cc(C)c(OC)cc12`
Marked response: inactive

Exam item: Entry to check: `O=c1[nH]/c(=C/c2cccs2)c(=O)[nH]/c1=C/c1ccc(OCc2ccccc2)cn1`
Marked response: active

Exam item: Entry to check: `CC(=O)c1ccc(/N=N/N2CCCC2)cc1`
Marked response: inactive

Exam item: Entry to check: `CC(C)(C)OC(=O)N/C(C=O)=C\C1CCCCC1`
Marked response: inactive

Exam item: Entry to check: `COc1cc(/C=C2\Cc3cc(OC)c(OC)cc3C2=O)cc(OC)c1`
Marked response: active

Exam item: Entry to check: `CN(C)c1ccc(-c2c(C#N)c(-c3ccccc3)n(NS(=O)(=O)c3ccccc3)c(=O)c2C#N)cc1`
Marked response: inactive

Data credit: ChEMBL document CHEMBL1201862
